# assayed-target: human liver GK (GST-hLGK1) (Homo sapiens, UniProt P35557)
# Construct: with a BamHI site added to immediately before the initiation codon
# Sequence (P35557 1-464 isoform P35557-3): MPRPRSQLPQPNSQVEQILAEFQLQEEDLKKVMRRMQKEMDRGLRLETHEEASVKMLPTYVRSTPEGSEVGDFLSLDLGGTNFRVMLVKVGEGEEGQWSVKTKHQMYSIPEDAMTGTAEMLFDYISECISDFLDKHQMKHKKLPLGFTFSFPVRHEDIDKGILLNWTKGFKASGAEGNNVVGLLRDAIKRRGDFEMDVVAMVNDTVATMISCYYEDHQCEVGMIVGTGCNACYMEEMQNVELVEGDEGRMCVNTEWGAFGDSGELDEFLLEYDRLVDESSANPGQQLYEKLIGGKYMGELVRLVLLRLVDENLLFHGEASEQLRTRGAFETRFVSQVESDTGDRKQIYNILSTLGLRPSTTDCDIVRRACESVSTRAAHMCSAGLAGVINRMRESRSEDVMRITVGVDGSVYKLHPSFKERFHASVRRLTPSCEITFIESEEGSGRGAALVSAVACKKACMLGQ
# protocol-details: Measurement of GK activation value
# protocol-conditions: GST-hLGK1 6 μg/mL, 5 mmol/L D-glucose, 50 μmol/L Mant-ATP, 60 min at 37° C.; concentration at midpoint between maximum activity value and control activity value
measurement-label: pEC50
# pEC50: negative log10 of molar concentration; output just the value

compound	pEC50
CCOc1cc(Oc2ccc(S(C)(=O)=O)nc2)cc2cc(C3=NCC(CC(=O)NC)S3)[nH]c12 (single isomer, unassigned)	7.70

stdin: Which pEC50 is reported for this compound? CC(C)Oc1cc(Oc2ccc(S(C)(=O)=O)cn2)cc2cc(C3=NCC(CC(C)(C)O)S3)[nH]c12 (single isomer, unassigned)
stdout: 7.23

These measurements were taken from patent US8673942B2.
